Hi there, I'd appreciate the recorded pIC50 for every entry that follows.
# Target: human PAD4 (Homo sapiens)
# Construct: human PAD4 (NM_012387), A2-P663, was PCR amplified; His-SUMO (N, cleaved yes)
# Sequence (Q9UM07 2-663): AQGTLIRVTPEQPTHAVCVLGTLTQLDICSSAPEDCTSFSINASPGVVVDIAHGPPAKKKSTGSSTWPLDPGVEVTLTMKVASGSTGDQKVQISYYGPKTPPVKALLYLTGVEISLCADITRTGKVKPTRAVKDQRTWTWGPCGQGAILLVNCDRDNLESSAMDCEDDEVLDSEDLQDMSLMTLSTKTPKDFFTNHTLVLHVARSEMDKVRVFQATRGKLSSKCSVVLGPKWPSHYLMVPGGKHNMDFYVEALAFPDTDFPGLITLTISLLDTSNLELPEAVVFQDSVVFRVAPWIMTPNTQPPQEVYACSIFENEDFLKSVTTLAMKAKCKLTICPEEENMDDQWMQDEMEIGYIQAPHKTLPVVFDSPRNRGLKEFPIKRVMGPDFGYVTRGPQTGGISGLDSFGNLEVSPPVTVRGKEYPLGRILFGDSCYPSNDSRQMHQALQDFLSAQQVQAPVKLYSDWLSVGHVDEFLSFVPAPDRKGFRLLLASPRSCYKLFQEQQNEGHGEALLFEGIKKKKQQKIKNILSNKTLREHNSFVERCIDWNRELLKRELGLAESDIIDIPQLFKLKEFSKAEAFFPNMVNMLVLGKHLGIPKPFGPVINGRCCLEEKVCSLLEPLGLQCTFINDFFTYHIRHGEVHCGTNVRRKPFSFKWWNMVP
# Assay Procedure: In vitro PAD4 BAEE biochemical assay
# Assay Context: BAEE substrate 3 mM, 5 nM PAD4, 2 mM calcium chloride; geometric mean of multiple experiments
One number for each entry, as −log10 of the molar value.

Solved cases (4 shown):
COc1cc(C(=O)N2[C@H]3CC[C@@H]2[C@H](N)C3)cc2nc(-c3cc4ccc5nc4n3CCCCCCCC(=O)NC5C3CC3)n(C)c12 (some centres unmarked) [Example 259] | 7.43
COc1cc(C(=O)N2C[C@H](N)[C@@H]3CC[C@H]2C3)cc2nc(-c3cc4ccc5nc4n3CCCCCc3nccc(Cl)c3C(=O)N[C@@H]5C)n(C)c12 [Example 845] | 7.80
COc1cc(C(=O)N[C@H]2CNCC[C@@H]2F)cc2nc(-c3cc4ccc5nc4n3CCCOC[C@@H]3C[C@H]3C(=O)N[C@@H]5C)n(C)c12 [Example 616] | 7.15
COc1cc(C(=O)N2C[C@H](N)[C@@H]3CC[C@H]2C3)cc2nc(-c3cc4ccc5nc4n3CCCCCc3nc(C(F)(F)F)ncc3C(=O)N[C@@H]5C)n(C3CC3)c12 [Example 934] | 6.99

Report pIC50 on human PAD4 (Homo sapiens) for this entry: COc1cc(C(=O)N2CCC[C@@H](N)C2)cc2nc(-c3cc4ccc5nc4n3CCCCCCCC(=O)N[C@H]5C(F)(F)F)n(C)c12 (single isomer, unassigned) [Example 236]
6.07
